Target: hEP4/Gqs5 (Homo sapiens)
Sequence (P35408 whole entry): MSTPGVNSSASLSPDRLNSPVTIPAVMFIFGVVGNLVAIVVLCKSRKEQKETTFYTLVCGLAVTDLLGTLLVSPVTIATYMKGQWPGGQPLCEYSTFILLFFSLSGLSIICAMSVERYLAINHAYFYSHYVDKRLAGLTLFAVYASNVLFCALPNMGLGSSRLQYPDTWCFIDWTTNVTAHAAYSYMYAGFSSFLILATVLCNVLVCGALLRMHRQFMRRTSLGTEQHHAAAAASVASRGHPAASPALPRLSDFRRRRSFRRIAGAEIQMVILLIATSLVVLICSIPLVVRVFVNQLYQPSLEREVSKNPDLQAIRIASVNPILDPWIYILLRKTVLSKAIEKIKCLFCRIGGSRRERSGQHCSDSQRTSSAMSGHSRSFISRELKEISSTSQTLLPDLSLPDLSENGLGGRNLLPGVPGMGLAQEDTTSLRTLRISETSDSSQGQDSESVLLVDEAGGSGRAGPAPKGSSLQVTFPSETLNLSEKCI
Experiment: FLIPR calcium signal, hEP4/Gqs5
Details: HEK-293 (EBNA) cells, read-out: FUNCTIONAL EC50 HEP4

| compound | EC50 |
| --- | --- |
| COC(=O)CSCCCS[C@H]1C(=O)CC[C@@H]1/C=C/C(C)(O)CCc1ccc2ccccc2c1 (stereo partly shown) | 46 nM |
| O=C(O)CSCCCS[C@H]1C(=O)CC[C@@H]1/C=C/C(O)Cc1csc2ccccc12 (single isomer, unassigned) [drawing 55] | 7240 nM |
| COC(=O)CSCCCS[C@H]1C(=O)CC[C@@H]1/C=C/C(O)Cc1ccccc1 (single isomer, unassigned) [drawing 46] | 0.09 nM |
| COC(=O)CSCCCS[C@H]1C(=O)C[C@@H](CO)[C@@H]1/C=C/C(O)Cc1ccccc1 (single isomer, unassigned) [drawing 42] | 106 nM |

---

Target: hEP4/Gqs5 (Homo sapiens)
Test: FLIPR calcium signal, hEP4/Gqs5
Settings: HEK-293 (EBNA) cells, read-out: FUNCTIONAL EC50 HEP4

| compound | EC50 |
| --- | --- |
| CC(O)(/C=C/[C@H]1CCC(=O)[C@@H]1SCCCSCC(=O)O)CCc1ccc2ccccc2c1 (single isomer, unassigned) [drawing 24] | 1.8 nM |
| O=C(O)CSCCCS[C@H]1C(=O)CC[C@@H]1/C=C/C(O)CCc1cc2ccccc2s1 (stereo partly shown) [drawing 26] | 2.4 nM |
| O=C(O)CSCCCS[C@H]1C(=O)CC[C@@H]1/C=C/C(O)CCc1cc2ccccc2s1 (stereo partly shown) [drawing 25] | 3.7 nM |
| CCCCC[C@H](O)/C=C/[C@H]1CCC(=O)[C@@H]1SCCCSCC(=O)O | 1.6 nM |
| O=C(O)CSCCCS[C@H]1C(=O)C[C@@H](CO)[C@@H]1/C=C/C(O)CCc1cc2ccccc2s1 (single isomer, unassigned) [drawing 31] | 363 nM |
| COC(=O)CSCCCS[C@H]1C(=O)C[C@@H](CO)[C@@H]1/C=C/C(O)Cc1ccccc1 (single isomer, unassigned) [drawing 43] | 2090 nM |
| O=C(O)CSCCCS[C@H]1C(=O)CC[C@@H]1/C=C/C(O)Cc1csc2ccccc12 (single isomer, unassigned) [drawing 56] | 6.8 nM |

---

Reported IC50, HEP4 (Homo sapiens, UniProt P35408).
quantity_kind: IC50

| molecule | target_or_test_system | reported_value |
| --- | --- | --- |
| COC(=O)CSCCCS[C@H]1C(=O)CC[C@@H]1/C=C/C(O)CCc1cc2ccccc2s1 (stereo partly shown) [drawing 27] | HEP4 (Homo sapiens, UniProt P35408) | 300 nM |
| COC(=O)CSCCCS[C@H]1C(=O)C[C@@H](CO)[C@@H]1/C=C/C(O)Cc1ccccc1 (single isomer, unassigned) [drawing 42] | HEP4 (Homo sapiens, UniProt P35408) | 195 nM |
| O=C(O)CSCCCS[C@H]1C(=O)CC[C@@H]1/C=C/C(O)Cc1ccccc1 (single isomer, unassigned) [drawing 47] | HEP4 (Homo sapiens, UniProt P35408) | 55 nM |
| COC(=O)CSCCCS[C@H]1C(=O)C[C@@H](CO)[C@@H]1/C=C/C(O)CCc1ccc2ccccc2c1 (single isomer, unassigned) [drawing 39] | HEP4 (Homo sapiens, UniProt P35408) | 140 nM |
